- Test system: ACHN renal
- procedure-details: NCI tumour cell line growth inhibition, 48 h
outcome-measure: TGI

>>> print(df.to_string())
                                   molecule      system  observed_measurement
0  C=COC(=O)N1C2CCCC(Cl)(C(C)=O)C1CC2 (stereo unspecified)  ACHN renal              > 100 µM
1  N#Cc1ccc(NC(=O)Nc2nc3ccc(OC(F)(F)F)cc3s2)cc1  ACHN renal               7.05 µM
2  COc1ccc(S(=O)(=O)Nc2ccc(-c3csc(N4C(=O)/C(=C/c5cccs5)N=C4c4ccccc4)n3)cc2)cc1Cl  ACHN renal              > 100 µM
3  CC(C)C1NC(=O)[C@H](C)OC(=O)[C@@H](C(C)C)NC(=O)[C@@H](C)OC(=O)C(C(C)C)NC(=O)[C@H](C)OC1=O (stereo partly specified)  ACHN renal              > 100 µM
4              N/C(=N\N=C\c1ccc(O)c(O)c1)NO  ACHN renal              > 100 µM

Exercise: Using the record for C[C@@]1(O)CCC[C@H]1n1c(=O)c(C(F)F)cc2cnc(NC3CCN(S(C)(=O)=O)CC3)nc21 , report its TGI.
Solution: > 100 µM

Exercise: Using the record for COc1ccc(-c2nc(SC)n(C3OC(COC(C)=O)C(OC(C)=O)C(OC(C)=O)C3OC(C)=O)c(=O)c2C#N)cc1 (stereo unspecified) , report its TGI.
Solution: > 100 µM

Exercise: Using the record for O=C(O)CNC(=O)C1NC(C(F)(F)F)(C(F)(F)F)OC1(C(F)(F)F)C(F)(F)F (stereo unspecified) , report its TGI.
Solution: > 100 µM

Exercise: Using the record for C#CCOC(=O)[C@@H](C)c1ccc2cc(OC)ccc2c1 , report its TGI.
Solution: > 100 µM

Exercise: Using the record for C/C(=N\NS(=O)(=O)c1c(C)cc(C)cc1C)c1ccc[n+]([O-])n1 , report its TGI.
Solution: 29.9 µM

Exercise: Using the record for COc1ccc(Br)c(C=Nc2cccc3cc(OC)c(OC)cc23)c1 , report its TGI.
Solution: > 73.8 µM

Exercise: Using the record for COC(=O)C1=C(O)c2cc3c(cc2[C@H](c2cc(OC)c(OC)c(OC)c2)C1)OCO3 , report its TGI.
Solution: > 100 µM

Exercise: Using the record for Cc1nc2ccccc2c(/C=C/c2ccccc2)c1C(=O)/C=C/c1ccccc1 , report its TGI.
Solution: 3.62 µM

---

- Test system: RPMI-8226 leukemia
- procedure-details: NCI tumour cell line growth inhibition, 48 h; in the data active = GI50 below about 0.43 µM; inactive = the rest
Thanks in advance; please answer with one of these: active, inactive

Sample answers from the record:
compound	class-assignment
C#CCN(Cc1nc2cc(C(F)(F)F)ccc2nc1-c1ccccc1)c1ccc(F)cc1	inactive
CCCCCC(=C/c1ccccc1)/C=N/N=C(N)N	inactive
COc1ccc2c(c1)c(-c1ccc(-c3cn(C)c4ccc(OC)cc34)o1)cn2C	inactive
CSC1SCC2C(=O)N(C)C(C(C)C)C(=O)OCC(NC(=O)c3cnc4ccccc4n3)C(=O)NC(C)C(=O)N(C)C1C(=O)N(C)C(C(C)C)C(=O)OCC(NC(=O)c1cnc3ccccc3n1)C(=O)NC(C)C(=O)N2C (centres undefined)	active
CCC1(N)C(=O)OCc2c1cc1n(c2=O)Cc2cc3ccccc3nc2-1 (centres undefined)	inactive
COc1ccc(C(=O)c2cc(C)c(OC)c(C)c2)c(OC)c1N(C(=O)CCl)C(=O)CCl	active

Exercise: Short answer needed: outcome of this test for O=C1CCC(N2C(=O)c3cccc(NCCOCCOCCNC(=O)c4cc5c(o4)C(=O)c4ccccc4C5=O)c3C2=O)C(=O)N1 (centres undefined) ?
Solution: inactive

Exercise: Short answer needed: outcome of this test for O=C1c2ccccc2-c2c1c1ccc([N+](=O)[O-])cc1c(=O)n2CCCn1ccnc1 ?
Solution: active

Exercise: Short answer needed: outcome of this test for O=C(Nc1ccc(N2CCNCC2)cn1)c1[nH]ncc1Nc1ncnc2sccc12 ?
Solution: inactive

---

- Tested on: MOLT-4 leukemia
- procedure-details: NCI tumour cell line growth inhibition, 48 h
Parameter TGI: see the listing below.

See these solved cases before continuing.
                                   compound           system  observed_measurement
0  CCN(CC)/[N+]([O-])=N/OCC(C)O (stereo unspecified)  MOLT-4 leukemia              > 100 µM
1  COC(=O)C1(Cc2ccc(C)cc2)Cc2c(C)cccc2C1=O (stereo unspecified)  MOLT-4 leukemia              > 100 µM
2  C=CC(C)(C)n1cc(C2=C(O)C(=O)C(c3c(CC=C(C)C)[nH]c4ccccc34)=C(O)C2=O)c2ccccc21  MOLT-4 leukemia               9.51 µM

Exercise: Tell me reported TGI for O=C(c1cccc2cc(O)ccc12)c1cn(CCN2CCOCC2)c2ccccc12 , tested with MOLT-4 leukemia.
Solution: 62.9 µM

Exercise: Tell me reported TGI for O=C(Nc1ccc(N2CCNCC2)cn1)c1[nH]ncc1Nc1ncnc2sccc12 , tested with MOLT-4 leukemia.
Solution: 7.64 µM

Exercise: Tell me reported TGI for Fc1cc2nc3n(c2cc1F)C(c1c(Cl)cccc1Cl)SC3 (stereo unspecified) , tested with MOLT-4 leukemia.
Solution: > 100 µM

Exercise: Tell me reported TGI for C(#C[C@@]12CCC[C@@H]1N(Cc1ccccc1)CO2)c1ccc2c(c1)OCO2 , tested with MOLT-4 leukemia.
Solution: > 100 µM

Exercise: Tell me reported TGI for CCCCSC1=N/C(=C\c2ccc(N(C)C)cc2)C(Cl)=N1 , tested with MOLT-4 leukemia.
Solution: > 100 µM

Exercise: Tell me reported TGI for Cc1ccc(-c2cc(=O)c3cc(C)c(C)c(C(=O)O)c3o2)cc1[N+](=O)[O-] , tested with MOLT-4 leukemia.
Solution: > 100 µM

Exercise: Tell me reported TGI for CCCCCC(=C/c1ccccc1)/C=N/N=C(N)N , tested with MOLT-4 leukemia.
Solution: 3.51 µM

Exercise: Tell me reported TGI for CS(=O)(=O)CCC(N)P(=O)(O)O (stereo unspecified) , tested with MOLT-4 leukemia.
Solution: > 100 µM

---

- System: HL-60(TB) leukemia
- procedure-details: NCI tumour cell line growth inhibition, 48 h
Parameter log10 TGI: see the listing below.
Please keep in mind that the values are log10 of TGI expressed in µM.

See these solved cases before continuing.
compound	log10 TGI
C[C@@]1(O)CCC[C@H]1n1c(=O)c(C(F)F)cc2cnc(NC3CCN(S(C)(=O)=O)CC3)nc21	0.73
CC(=O)Oc1cc(Cl)c(OC(C)=O)c2c(OC(C)=O)c(C)c(O[Si](C)(C)C(C)(C)C)cc12	0.95
CC1(C)CC[C@]2(C(=O)O)CC[C@]3(C)C(=CC[C@@H]4[C@@]5(C)CC[C@H](OC6OC(CO)C(O)C(O)C6O)C(C)(C)[C@@H]5CC[C@]43C)[C@@H]2C1 (stereo partly drawn)	0.58

Exercise: Using the record for S=C(S)N1CCN(c2ccccc2)CC1 , report its log10 TGI.
Solution: 1.81

Exercise: Using the record for COC1C(O)CC(OC2CC(OC3CC(O[C@@H]4C(=O)c5c(cc6cc(OC7CC(OC8CC(O)C(O)C(C)O8)C(O)C(C)O7)c(C)c(O)c6c5O)CC4[C@H](OC)[C@@H](O)C(C)=O)OC(C)C3O)OC(C)C2O)OC1C (stereo partly drawn) , report its log10 TGI.
Solution: 0.84

---

- Test system: M14 melanoma
- procedure-details: NCI tumour cell line growth inhibition, 48 h
Tag: Criterion met if measured TGI is not below 9 µM, Criterion not met if it is.

Sample answers from the record:
compound	class-assignment
O=C1c2ccccc2-c2c1c1ccc([N+](=O)[O-])cc1c(=O)n2CCCn1ccnc1	Criterion not met
CC(=Nc1ccccc1)C1=C(O)C(Cc2ccc(F)cc2)NC1=O (stereo not given)	Criterion met
CCCCCCCCCCCCC(NC(C)=O)(C(=O)OCC)C(=O)OCC	Criterion met
C[C@H](C(O)CC(=O)C(C)(C)O)[C@H]1CC[C@@]2(C)[C@@H]3CC[C@H]4C(C)(C)[C@@H](OC5OC(COC6OC(CO)C(O)C(O)C6O)C(O)C(O)C5O)CC[C@]4(C)C3=CC[C@]12C (stereo not given in full)	Criterion met
Cc1ccc2c(c1)-c1oc(=O)c(-c3cc4ccccc4oc3=O)cc1C(O)O2 (stereo not given)	Criterion met

Exercise: Has S=C1SCN(C2CCCCCCCCCCC2)CN1C1CCCCCCCCCCC1 a recorded TGI greater than or equal to 9 µM?
Solution: Criterion met

Exercise: Has CCOC(=O)C(=O)C(/C(=N/N(C)C)C(=O)Nc1ccc(C)cc1C)c1nc2ccccc2[nH]c1=O (stereo not given) a recorded TGI greater than or equal to 9 µM?
Solution: Criterion met

Exercise: Has CC1=CC(=O)/C(=C/N2C(=O)CNC2=S)C(=O)O1 a recorded TGI greater than or equal to 9 µM?
Solution: Criterion met

Exercise: Has CCOC(=O)C1=C(C)N(C2OC(COC(C)=O)C(OC(C)=O)C(OC(C)=O)C2OC(C)=O)C(=O)NC1c1ccccc1 (stereo not given) a recorded TGI greater than or equal to 9 µM?
Solution: Criterion met

Exercise: Has Fc1ccc2c(c1)cc1ccc3cccc4ccc2c1c34 a recorded TGI greater than or equal to 9 µM?
Solution: Criterion met

Exercise: Has CCCCCCC(=O)c1ccc2ccccc2c1O a recorded TGI greater than or equal to 9 µM?
Solution: Criterion met
